Measured pEC50, listed per entry for reference.
Target: T1, human SLC34A2 (human, UniProt O95436 1-690)
T1 construct: whole, on cells; also called human solute carrier 34 A2; NaPi2b
T1 sequence (looked up): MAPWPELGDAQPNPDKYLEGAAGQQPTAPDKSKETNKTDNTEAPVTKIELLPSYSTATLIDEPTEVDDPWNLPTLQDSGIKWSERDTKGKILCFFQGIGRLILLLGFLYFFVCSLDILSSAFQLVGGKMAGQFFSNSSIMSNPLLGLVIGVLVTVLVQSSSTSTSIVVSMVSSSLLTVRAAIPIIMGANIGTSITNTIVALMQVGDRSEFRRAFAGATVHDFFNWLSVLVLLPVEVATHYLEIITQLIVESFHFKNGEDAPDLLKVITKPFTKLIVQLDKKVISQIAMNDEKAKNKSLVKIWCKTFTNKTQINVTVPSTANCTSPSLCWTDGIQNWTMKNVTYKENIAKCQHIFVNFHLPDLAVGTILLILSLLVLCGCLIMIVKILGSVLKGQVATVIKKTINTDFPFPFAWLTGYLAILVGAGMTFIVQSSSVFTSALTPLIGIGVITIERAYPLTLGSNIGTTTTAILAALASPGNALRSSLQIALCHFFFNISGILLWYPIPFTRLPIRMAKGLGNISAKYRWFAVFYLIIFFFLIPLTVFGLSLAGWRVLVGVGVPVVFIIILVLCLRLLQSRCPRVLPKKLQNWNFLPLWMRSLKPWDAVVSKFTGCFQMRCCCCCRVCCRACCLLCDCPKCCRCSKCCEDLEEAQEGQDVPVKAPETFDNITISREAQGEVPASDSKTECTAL
Assay: FACS, OVCAR3 cells
pEC50: −log10 of the molar value.
PROPERTY_MEASURED: pEC50

| BINDER | PROPERTY_MEASURED | MEASURED_VALUE |
| --- | --- | --- |
| 62G10E4G8.p3.z16 hIgG1 (antibody, V domains shown, humanized hIgG1) VH: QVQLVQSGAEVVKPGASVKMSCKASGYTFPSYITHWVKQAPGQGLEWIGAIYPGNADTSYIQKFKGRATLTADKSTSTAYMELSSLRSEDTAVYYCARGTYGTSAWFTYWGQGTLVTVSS VL: EIVLTQSPATLSASPGERATLSCRARQNIGNNLYWYQQKPGQSPRLLIKYASQSISGIPSRFSGSGSGTDFTLTISSVQSEDFAVYFCQQSFSWPLTFGAGTKLEIK | pEC50 | 7.96 |
| 62G10E4G8 VH_P3/VL hIgG1 (antibody, V domains shown, PTM-derisked chimeric, hIgG1; that P3 is the NA version follows from the humanized .p3 chains; also called 62G10E4G8.p3 hIgG1) VH: QVQLQQSGAEVVKPGASVKMSCKASGYTFPSYITHWVKQTPGQGLEWIGAIYPGNADTSYIQKFKGKATLTADKSSSTAYMQLSSLTSEDSAVYYCARGTYGTSAWFTYWGQGTLVTVSA VL: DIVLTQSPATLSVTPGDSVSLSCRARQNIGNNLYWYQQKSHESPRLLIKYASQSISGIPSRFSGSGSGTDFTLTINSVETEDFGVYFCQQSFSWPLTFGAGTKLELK | pEC50 | 8.16 |
| 30H9B8F9.p1.z13 hIgG1 (antibody, V domains shown, humanized hIgG1) VH: QVQLVQSGAEVVKPGASVKMSCKTSGYTFTTNNMHWVKQAPGQGLEWIGAIYPGSGATAYNQKFKGRATLTADKSTSTAYMELSSLRSEATAVYYCARGMYGHGAMDYWGQGTSVTVSS VL: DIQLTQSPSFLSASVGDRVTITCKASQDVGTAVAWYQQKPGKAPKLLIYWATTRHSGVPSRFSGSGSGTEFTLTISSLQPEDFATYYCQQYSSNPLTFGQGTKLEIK | pEC50 | 8.99 |
